System: Mycobacterium tuberculosis
Assay: Antimycobacterial activity against Mycobacterium tuberculosis H37Rv expressing pFCA-luxAB after 10 days by luminescence-based low-oxygen recovery assay
Type: functional
Conditions: 240 h
Listing of recorded MIC by entry.
Give the number; µM is assumed, so skip it.

smiles.record	unit.of.measure	MIC
O=[N+]([O-])c1cn2c(n1)OC[C@@H](OCc1ccc(-c3ccc(F)nc3)s1)C2	µM	2.3
Cn1c(CO[C@@H]2COc3nc([N+](=O)[O-])cn3C2)cnc1-c1ccc(C(F)(F)F)cc1	µM	9.7
O=[N+]([O-])c1cn2c(n1)OC[C@@H](OCc1csc(-c3ccc(C(F)(F)F)cc3)n1)C2	µM	3

// moving on: another record for MIC
Supply reported MIC belonging to this molecule: O=[N+]([O-])c1cn2c(n1)OC[C@@H](OCc1cn(-c3ccc(OC(F)(F)F)cc3)nn1)C2 3.3
